Biological target: T1, dimeric human PRLR (hPRLR.mFc; SEQ ID NO:402) (Homo sapiens, UniProt P16471)
T1 construct: dimeric (hPRLR.mFc)
T1 sequence (P16471 with tags, fused parts or gaps): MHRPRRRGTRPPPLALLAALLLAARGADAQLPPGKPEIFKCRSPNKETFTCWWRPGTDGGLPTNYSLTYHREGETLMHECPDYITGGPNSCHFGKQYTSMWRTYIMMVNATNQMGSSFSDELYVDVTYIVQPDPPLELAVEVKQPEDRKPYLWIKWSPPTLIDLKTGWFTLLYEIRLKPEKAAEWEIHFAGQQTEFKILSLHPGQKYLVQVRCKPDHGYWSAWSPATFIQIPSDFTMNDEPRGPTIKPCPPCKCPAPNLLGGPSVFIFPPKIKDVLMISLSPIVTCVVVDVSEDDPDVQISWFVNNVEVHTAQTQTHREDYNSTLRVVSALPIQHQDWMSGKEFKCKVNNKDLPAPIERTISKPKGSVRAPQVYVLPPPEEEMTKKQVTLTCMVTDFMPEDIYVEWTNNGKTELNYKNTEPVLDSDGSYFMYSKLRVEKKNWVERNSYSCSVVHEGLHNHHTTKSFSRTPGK
Test: Surface plasmon resonance (Biacore T200), antibody-capture format
Format: binding
Conditions: 37° C., analyte hPRLR.mFc
Protocol: Antibodies, expressed as human IgG1 Fc (i.e., “H1H” designations), were captured onto an anti-human Fc sensor surface (mAb-capture format), and soluble monomeric (hPRLR.mmh; SEQ ID NO:401, or Macaca fascicularis (mf) PRLR.mmh; SEQ ID NO:403) or dimeric (hPRLR.mFc; SEQ ID NO:402) PRLR protein was injected over the sensor surface. Measurements were conducted on a T200 Biacore instrument. […]

Molecule | ka (M/s)
H1H6790P: fully human anti-PRLR antibody, human IgG1 Fc; HCVR/LCVR SEQ ID NOs 114/122 (antibody, V domains shown) VH: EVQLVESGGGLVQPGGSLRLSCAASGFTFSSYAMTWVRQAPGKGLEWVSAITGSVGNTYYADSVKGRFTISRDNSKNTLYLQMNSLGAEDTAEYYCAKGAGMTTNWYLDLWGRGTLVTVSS VL: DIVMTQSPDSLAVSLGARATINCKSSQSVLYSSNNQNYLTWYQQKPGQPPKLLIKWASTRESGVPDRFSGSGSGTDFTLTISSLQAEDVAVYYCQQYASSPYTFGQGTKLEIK | 646000
H1H6958N2: anti-PRLR antibody, receptor blocking, human IgG1 Fc form of H2M6958N2 of Table 1; HCVR/LCVR SEQ ID NOs 290/298 (antibody, V domains shown) VH: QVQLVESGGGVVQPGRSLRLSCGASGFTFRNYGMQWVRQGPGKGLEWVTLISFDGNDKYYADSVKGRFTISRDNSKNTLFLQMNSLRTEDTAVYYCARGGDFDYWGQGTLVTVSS VL: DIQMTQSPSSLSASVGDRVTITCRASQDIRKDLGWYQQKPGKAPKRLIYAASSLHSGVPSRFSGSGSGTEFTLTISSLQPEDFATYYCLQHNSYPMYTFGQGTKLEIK | 829000

Values compiled from patent US10925971B2.
